- Tested on: dengue virus type 2
- measurement protocol: Inhibition of Dengue virus 2 NS2B-NS3 protease expressed in Escherichia coli Top10F' at 10 uM pre-incubated for 15 mins before addition of Bz-NIe-Lys-Arg-Arg-AMC substrate by spectrofluorometry
Activity calls are given as the source filed them. The rule behind the calls is not given here.
measure name: inhibition

> print(dat)
                         chemical.structure  assay.result
1  O=C(NCc1cn(CSc2ccccc2)nn1)Nc1ccc(C(=O)Nc2ccccc2)cc1      inactive
2  O=C(NCc1cn(Cc2ccccc2)nn1)Nc1ccc(C(=O)Nc2ccc(Oc3ccccc3)cc2)cc1         39.4%
3  O=C(NCc1cn(Cc2ccccc2)nn1)Nc1ccc(C(=O)NCCc2ccccc2)cc1      inactive
4  O=C(NCc1cn(Cc2ccc(F)cc2)nn1)Nc1ccc(C(=O)NCCc2ccccc2)cc1      inactive

Report the value of inhibition obtained on dengue virus type 2 for `O=C(NCc1cn(Cc2ccccc2)nn1)Nc1ccc(C(=O)Nc2cccc(Oc3ccccc3)c2)cc1` .
inactive

Report the value of inhibition obtained on dengue virus type 2 for `O=C(NCc1cn(Cc2ccc(F)cc2)nn1)Nc1ccc(C(=O)Nc2ccc(Oc3ccccc3)cc2)cc1` .
55.3%

Report the value of inhibition obtained on dengue virus type 2 for `O=C(NCc1cn(CSc2ccccc2)nn1)Nc1ccc(C(=O)NCc2ccco2)cc1` .
inactive

Report the value of inhibition obtained on dengue virus type 2 for `O=C(NCc1cn(CSc2ccccc2)nn1)Nc1cccc(C(=O)NCCc2ccccc2)c1` .
inactive

Report the value of inhibition obtained on dengue virus type 2 for `O=C(NCc1cn(Cc2ccccc2)nn1)Nc1ccc(C(=O)NCc2ccco2)cc1` .
inactive
